Recorded normalised inhibition (eCFP-eYFP dual reporter) for the following substances
TEST TARGET: UBE2W
METHOD NOTES: reporter assay of Huesken 2005
PROTOCOL CONDITIONS: siRNA
Oligonucleotides are written 5' to 3', each unit as a sugar letter and its base; * is a phosphorothioate linkage, no mark a phosphodiester; rarer units and linkages stand in square brackets, end groups in braces. Plain capitals give the bases only. d = 2'-deoxy (DNA); r = 2'-OH (RNA)
QUANTITY NAME: normalised inhibition (eCFP-eYFP dual reporter) (%)

{"columns": ["SUBSTANCE", "RECORDED NUMBER"],
 "data": [
  ["sense rCrUrGrUrUrCrArUrCrCrUrCrArUrGrUrUrUrAdTdT / antisense rUrArArArCrArUrGrArGrGrArUrGrArArCrArGdGdA", 113],
  ["sense rArCrUrGrGrUrCrCrCrCrArGrCrGrCrUrCrUrCdTdT / antisense rGrArGrArGrCrGrCrUrGrGrGrGrArCrCrArGrUdCdT", 93.1],
  ["sense rUrCrCrArUrUrCrUrArArCrArGrArArGrArCrUdTdT / antisense rArGrUrCrUrUrCrUrGrUrUrArGrArArUrGrGrAdTdA", 64.1],
  ["sense rArGrCrArUrUrArUrUrArGrCrArUrGrCrUrUrUdTdT / antisense rArArArGrCrArUrGrCrUrArArUrArArUrGrCrUdAdA", 84.8],
  ["sense rArUrUrArGrCrArUrGrCrUrUrUrCrCrArGrCrUdTdT / antisense rArGrCrUrGrGrArArArGrCrArUrGrCrUrArArUdAdA", 67.5],
  ["sense rUrGrGrUrGrArArArArUrArUrUrCrCrUrGrUrUdTdT / antisense rArArCrArGrGrArArUrArUrUrUrUrCrArCrCrAdGdT", 115]
]}

###

TEST TARGET: UBE2H
METHOD NOTES: reporter assay of Huesken 2005
PROTOCOL CONDITIONS: siRNA
Oligonucleotides are written 5' to 3', each unit as a sugar letter and its base; * is a phosphorothioate linkage, no mark a phosphodiester; rarer units and linkages stand in square brackets, end groups in braces. Plain capitals give the bases only. d = 2'-deoxy (DNA); r = 2'-OH (RNA)
Classification by normalised inhibition (eCFP-eYFP dual reporter) | ranges: class 1 = under 70%, class 2 = from 70% up to 80%, class 3 = 80% and over

{"columns": ["SUBSTANCE", "LABEL CLASS"],
 "data": [
  ["sense rGrArGrUrArUrGrGrArArArGrUrUrArGrArGrUdTdT / antisense rArCrUrCrUrArArCrUrUrUrCrCrArUrArCrUrCdCdG", "class 3"],
  ["sense rGrArGrUrArCrArUrCrCrArGrArArArUrArCrGdTdT / antisense rCrGrUrArUrUrUrCrUrGrGrArUrGrUrArCrUrCdTdT", "class 2"],
  ["sense rCrArGrGrArArGrArGrGrGrUrArCrCrGrGrGrGdTdT / antisense rCrCrCrCrGrGrUrArCrCrCrUrCrUrUrCrCrUrGdTdT", "class 2"],
  ["sense rArUrArCrCrCrUrUrUrCrArArArUrCrUrCrCrAdTdT / antisense rUrGrGrArGrArUrUrUrGrArArArGrGrGrUrArUdTdT", "class 3"],
  ["sense rUrGrUrArGrUrGrArArGrUrUrUrUrArUrGrGrAdTdT / antisense rUrCrCrArUrArArArArCrUrUrCrArCrUrArCrAdAdA", "class 2"],
  ["sense rCrArUrGrArArUrArArArArUrUrUrUrCrCrArUdTdT / antisense rArUrGrGrArArArArUrUrUrUrArUrUrCrArUrGdAdA", "class 1"],
  ["sense rCrCrUrArArCrCrCrCrArUrArGrArUrCrCrUrCdTdT / antisense rGrArGrGrArUrCrUrArUrGrGrGrGrUrUrArGrGdAdT", "class 1"],
  ["sense rArGrArGrGrGrUrArCrCrGrGrGrGrArCrArGrCdTdT / antisense rGrCrUrGrUrCrCrCrCrGrGrUrArCrCrCrUrCrUdTdC", "class 1"],
  ["sense rUrGrUrArCrCrUrCrCrArCrCrGrArCrCrArGrAdTdT / antisense rUrCrUrGrGrUrCrGrGrUrGrGrArGrGrUrArCrAdTdG", "class 3"],
  ["sense rArUrArGrGrArUrUrCrArUrGrArArUrArArArAdTdT / antisense rUrUrUrUrArUrUrCrArUrGrArArUrCrCrUrArUdAdG", "class 3"]
]}
